MEASUREMENT_NOTES: Lipophilicity (logD)
Assay type: physicochemical
CONDITION_PARAMETERS: pH 7.4; pH7.4; read-out: LogD (pH7.4)
Overview of reported logD across a group of compounds:

A selection of reference data follows.
Cc1ccc(NC(=O)c2cnn3c(O)cc(-c4ccc(COC(C)C)cc4)nc23)cc1Cl [BRD5079]
> 4.23
Cc1ccc(NC(=O)c2cnn3c(O)cc(-c4ccc(F)c(Cl)c4)nc23)cc1 [BRD5067]
> 4.89
Cc1ccc(NC(=O)c2cnn3c(O)cc(-c4ccc(COC(C)C)cc4)nc23)nc1 [BRD5075]
3.57

Moving on to the next compound.
Identify measured logD corresponding to Cc1ccc(NC(=O)c2cnn3c(O)cc(-c4ccc(COC(C)C)c(Cl)c4)nc23)cc1 [BRD5059]
> 5.25
